Biological target: T1, serum resistance-associated protein (SRA) from Trypanosoma brucei rhodesiense, recombinant SRA (SEQ ID NO: … (Trypanosoma brucei rhodesiense, UniProt O96637 31-274))
T1 construct: also called SRA protein
T1 sequence: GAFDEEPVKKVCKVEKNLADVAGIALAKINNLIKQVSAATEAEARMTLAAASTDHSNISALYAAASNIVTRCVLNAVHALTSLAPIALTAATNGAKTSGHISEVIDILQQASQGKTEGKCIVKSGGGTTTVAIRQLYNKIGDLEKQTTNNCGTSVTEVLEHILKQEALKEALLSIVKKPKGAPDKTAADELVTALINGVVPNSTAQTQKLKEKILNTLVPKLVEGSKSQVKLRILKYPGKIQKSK
Experiment: SPR, mAb captured, 25C, assoc. pH 7.4, dissoc. pH 4.5
OBSERVABLE: t ½

BINDER	t ½
H1H10064P (antibody, V domains shown, Fully human antibody with human IgG1 Fc (prefix H1H)) VH: QVQLVQSGAEVKKPGSSVKVSCKASGGSFSSNVFSWVRQAPGQGLEWMGGIIPIFGSANYAQKFQGRVTITTDESTTTAYMELSSLRSEDTAVYYCAIGGTGPSGYNWNYGAFYIWGQGTMVTVSS VL: DIQMTQSPSSLSASVGDRVTITCRASQGIRNDLGWYQQKPGIAPKRLIYAASSLQSGVPSRFSGSGSGTEFTLTISSLQPEDFATYYCLQHNSYPYTFGQGTKLEIK	1.5 min

Attention now shifts to the item below.
Data point: H2aM10285N (antibody, V domains shown, Chimeric antibody, human variable domains and mouse constant domains (mouse Fc, prefix H2aM); also called H2M10285N) VH: QVQLVQSGAEVKKPGSSVKVSCKASGGTFTNFAISWVRQAPGLGLEWMGGIIPFVGTATYEQKFQGRVSITADESTRTAYMELSSLRYDDTAVYYCARWFSGSGGDFDYWGQGTLVTVSS VL: AIQMTQSPSSLSASVGDRVTITCRASQGIGNDLGWYQQRRGTAPKLLIYAASSLQSGVPSRFSGSGSGTDFTLTISSLQPEDFATYYCLQDFTFPRTFGQGTKVEIK ; t ½ = 0.7 min
